Test system: Rtkn-GFP
assay: ToxTracker genotoxicity assay, Rtkn-GFP reporter induction
details: GFP induction vs vehicle at 10% cytotoxicity; 3 h exposure with S9, 24 h recovery
endpoint_label: Genotoxicity test, With S9 rat liver extract, Rtkn, 10 (fold)
Give bare numbers, in fold.

# count of solved cases: 3
{"compound": "CC1CN1C1CCCCC1OC(=O)NCCCCCCn1c(=O)n(CCCCCCNC(=O)OC2CCCCC2N2CC2C)c(=O)n(CCCCCCNC(=O)OC2CCCCC2N2CC2C)c1=O (centres unmarked)", "reported_measurement": 1.2}
{"compound": "CC(CN1CC1C)OC(=O)NC(C)(C)c1cccc(C(C)(C)NC(=O)OC(C)CN2CC2C)c1 (centres unmarked) [Comp. Ex. 8, reference compound]", "reported_measurement": 1.3}
{"compound": "CC(CN1CC1C)OC(=O)NCC1(C)CC(NC(=O)OC(C)CN2CC2C)CC(C)(C)C1 (centres unmarked) [Comp. Ex. 7, reference compound]", "reported_measurement": 1.6}

Provide reported Genotoxicity test, With S9 rat liver extract, Rtkn, 10 for each item, in the same order as listed.
1. CC(CN1CC1C)OC(=O)NCCCCCC/N=c1\oc(=O)n(CCCCCCNC(=O)OC(C)CN2CC2C)c(=O)n1CCCCCCNC(=O)OC(C)CN1CC1C (centres unmarked)
2. CCCCOCC(CN1CC1C)OC(=O)NCCCCCCn1c(=O)n(CCCCCCNC(=O)OC(COCCCC)CN2CC2C)c(=O)n(CCCCCCNC(=O)OC(COCCCC)CN2CC2C)c1=O (centres unmarked)
3. COCCOCCOCCOCCOCCOCCOCCOCCOCCOCCOCCOCCOCCOCC(CN1CC1C)OC(=O)NCCCCCCn1c(=O)n(CCCCCCNC(=O)OC(COCCOCCOCCOCCOCCOCCOCCOCCOCCOCCOCCOCCOCCOC)CN2CC2C)c(=O)n(CCCCCCNC(=O)OC(COCCOCCOCCOCCOCCOCCOCCOCCOCCOCCOCCOCCOCCOC)CN2CC2C)c1=O (centres unmarked)

Result:
[1.1, 0.9, 1.1]

// for each compound in input: emit Genotoxicity test, With S9 rat liver extract, Rtkn, 10
1. CCC(CN1CC1C)OC(=O)NCCCCCCn1c(=O)n(CCCCCCNC(=O)OC(CC)CN2CC2C)c(=O)n(CCCCCCNC(=O)OC(CC)CN2CC2C)c1=O (centres unmarked)
2. CCCCCCCCCC(=O)OCC(CN1CC1C)OC(=O)NC1CCC(CC2CCC(NC(=O)OC(COC(=O)CCCCCCCCC)CN3CC3C)CC2)CC1 (centres unmarked)
3. CC(CN1CC1C)OC(=O)NCCCCCCn1c(=O)n(CCCCCCNC(=O)OC(C)CN2CC2C)c(=O)n(CCCCCCNC(=O)OC(C)CN2CC2C)c1=O (centres unmarked)
4. CCCCOCC(CN1CC1C)OC(=O)NC(C)(C)c1cccc(C(C)(C)NC(=O)OC(COCCCC)CN2CC2C)c1 (centres unmarked)

Result:
1. 1.1
2. 1.0
3. 1.2
4. 1.3

Q: Please look up its Genotoxicity test, With S9 rat liver extract, Rtkn, 10: CCCCOCC(CN1CC1C)OC(=O)NCCCCCCN1C(=O)N(CCCCCCNC(=O)OC(COCCCC)CN2CC2C)C1=O (centres unmarked)
Result: 1.4

----------
Please respond with reported Genotoxicity test, Without S9 rat liver extract, Rtkn, 50 for every item in the list.
Test system: Rtkn-GFP
assay: ToxTracker genotoxicity assay, Rtkn-GFP reporter induction
details: GFP induction vs vehicle at 50% cytotoxicity; 24 h exposure, no S9
Hi, when you answer, please include the unit after the number. Thanks!

Look over these answered cases.
{"molecule": "Cc1ccccc1OCC(CN1CC1C)OC(=O)NCCCCCCn1c(=O)n(CCCCCCNC(=O)OC(COc2ccccc2C)CN2CC2C)c(=O)n(CCCCCCNC(=O)OC(COc2ccccc2C)CN2CC2C)c1=O (stereo not drawn)", "tgt": "Rtkn-GFP", "reported_measurement": "1.5 fold"}
{"molecule": "CC(CN1CC1C)OC(=O)NCCCCCCn1c(=O)n(CCCCCCNC(=O)OC(C)CN2CC2C)c(=O)n(CCCCCCNC(=O)OC(C)CN2CC2C)c1=O (stereo not drawn)", "tgt": "Rtkn-GFP", "reported_measurement": "1.4 fold"}
{"molecule": "CCCCCCCCCC(=O)OCC(CN1CC1C)OC(=O)NC1CCC(CC2CCC(NC(=O)OC(COC(=O)CCCCCCCCC)CN3CC3C)CC2)CC1 (stereo not drawn)", "tgt": "Rtkn-GFP", "reported_measurement": "1.1 fold"}
{"molecule": "CCCCOCC(CN1CC1C)OC(=O)NCCCCCC/N=c1\\oc(=O)n(CCCCCCNC(=O)OC(COCCCC)CN2CC2C)c(=O)n1CCCCCCNC(=O)OC(COCCCC)CN1CC1C (stereo not drawn)", "tgt": "Rtkn-GFP", "reported_measurement": "0.9 fold"}
{"molecule": "CC(CN1CC1C)OC(=O)NC1CCC(CC2CCC(NC(=O)OC(C)CN3CC3C)CC2)CC1 (stereo not drawn) [Comp. Ex. 9, reference compound]", "tgt": "Rtkn-GFP", "reported_measurement": "3.3 fold"}
{"molecule": "CC(CN1CC1C)OC(=O)NCC1(C)CC(NC(=O)OC(C)CN2CC2C)CC(C)(C)C1 (stereo not drawn) [Comp. Ex. 7, reference compound]", "tgt": "Rtkn-GFP", "reported_measurement": "3.8 fold"}

Quick one: give me Genotoxicity test, Without S9 rat liver extract, Rtkn, 50 for each item below, same order please.
1. CC(CN1CC1C)OC(=O)NCCCCCCNC(=O)OC(C)CN1CC1C (stereo not drawn) [Comp. Ex. 6, reference compound]
2. CCCCOCC(CN1CC1C)OC(=O)NCCCCCCNC(=O)OC(COCCCC)CN1CC1C (stereo not drawn) [Comp. Ex. 10, reference compound]
3. CC(CN1CC1C)OC(=O)NC(C)(C)c1cccc(C(C)(C)NC(=O)OC(C)CN2CC2C)c1 (stereo not drawn) [Comp. Ex. 8, reference compound]

Result:
1: 3.1 fold; 2: 1.9 fold; 3: 4.8 fold
